Known pIC50 of a selection of compounds
System Under Test: Nonstructural protein 3 (Zika virus)
Sequence (A0A024AXB9 whole entry): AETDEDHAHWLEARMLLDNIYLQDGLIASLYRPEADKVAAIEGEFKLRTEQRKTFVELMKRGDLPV
Measurement Description: Functional biochemical assay to identify treatments for viral infectious disease that targets Zika NS2B-NS3 protease. Utilizing a direct enzyme activity measurement method, reading the fluorescence intensity is used to characterize the relative potency of inhibitors as IC50.
Set-up: species or system PRVABC59
pIC50: −log10 of the molar value.

Consider the following illustrative entries.
[
  {
    "Item Smiles": "NCc1ccc(C#CCO)c(NC(=O)c2cc(Cl)cc(NC(=O)OCc3ccccc3)c2)c1",
    "pIC50": 4.51
  },
  {
    "Item Smiles": "O=C(Nc1cc(Cl)cc(C(=O)Nc2ccc(S(=O)(=O)N3CCNCC3)cc2)c1)OCc1ccccc1",
    "pIC50": "< 4.00"
  },
  {
    "Item Smiles": "Cc1c(C(=O)NCc2ccnc(OC3CCOCC3)c2)cc(C2CC2)n1C",
    "pIC50": "< 4.60"
  },
  {
    "Item Smiles": "Clc1cc([C@H](C#CC2CC2)Nc2ccc3c(c2)CNC3)c2cn[nH]c2c1",
    "pIC50": 5.87
  },
  {
    "Item Smiles": "NCc1cccc(NC(=O)Cc2cc(Cl)cc(NC(=O)OCc3ccccc3)c2)c1",
    "pIC50": 4.34
  },
  {
    "Item Smiles": "CCn1c(=O)c(N2CCC[C@H]2c2cncc(Br)c2)nc2ccccc21",
    "pIC50": "< 4.00"
  },
  {
    "Item Smiles": "COc1cc(C(=O)Nc2ccc3c(c2)CNC3)cc2ccoc12",
    "pIC50": 6.04
  },
  {
    "Item Smiles": "CN(C)Cc1cncc(NC(=O)[C@@H](NC(=O)OCc2ccccc2)c2ccc(OCc3ccccc3)cc2)c1",
    "pIC50": "< 4.00"
  },
  {
    "Item Smiles": "CNC(=O)[C@H](Nc1cccc(C2(C(=O)O)CCC2)c1)c1cc(Cl)cc(C2CC2)c1",
    "pIC50": "< 4.00"
  },
  {
    "Item Smiles": "CO[C@H]1C[C@H](n2cc3c(C(=O)Nc4ccc5c(c4)CNC5)cc(Cl)cc3n2)C1",
    "pIC50": 6.66
  }
]

Request body: readout pIC50, system Nonstructural protein 3 (Zika virus), query NCc1cccc(NC(=O)[C@@H]2C[C@@H](O)CN2C(=O)C23CC4CC(CC(C4)C2)C3)c1 . Return the value.
< 4.00

Form entry - test system: Nonstructural protein 3 (Zika virus); read-out: pIC50; compound: O=C(O)c1cc(Cl)ccc1NS(=O)(=O)c1ccc(OCc2ccncc2)cc1
< 4.00

Form: Entry = O=C(Nc1ccc2c(c1)CNC2)c1cc(F)cc(-c2ccnn2CC2CC2)c1 | System = Nonstructural protein 3 (Zika virus) | pIC50 = ____
5.97

Hello, I am looking for reported pIC50 with Nonstructural protein 3 (Zika virus) for NCCCc1ccc(C(=O)N2CC(c3cccc(Br)c3)C2)cc1 . Could you help?
< 4.00

Give recorded pIC50 with Nonstructural protein 3 (Zika virus) for the following compound: O=C(Nc1cccc(-n2nn[nH]c2=O)c1)c1cc(Cl)cc(C2CC2)c1
< 4.00

So what pIC50 did CNC(=O)[C@H](Nc1cccc([C@H]2CCOC2)c1)c1cc(C2CC2)n(C)n1 get with Nonstructural protein 3 (Zika virus)?
< 4.60

Write down the reported pIC50 of O=C(O)c1cc(Cl)ccc1S(=O)(=O)NC1CCN(S(=O)(=O)c2ccc(I)cc2)CC1 , test system: Nonstructural protein 3 (Zika virus).
< 4.00

Query the reported pIC50 for Nonstructural protein 3 (Zika virus); item: Cn1ccc(Nc2ccc(S(=O)(=O)Nc3ccc(Cl)cc3C(=O)O)cn2)n1
< 4.00

Checklist item: pIC50 tested on Nonstructural protein 3 (Zika virus), entry Cn1nc2c(c1NC(=O)c1cc(Cl)cc(NC(=O)OCc3ccccc3)c1)CNCC2 , value?
4.66

Notebook: pull reported pIC50 for Nonstructural protein 3 (Zika virus), entry NCc1cccc(NC(=O)[C@H](NC(=O)OCc2ccccc2)c2cccc(OCc3ncccn3)c2)c1
< 4.00

====

System Under Test: UniProt A0A024AXB9
Measurement Description: Functional biochemical assay to identify treatments for viral infectious disease that targets Zika NS2B-NS3 protease. Utilizing a direct enzyme activity measurement method, reading the fluorescence intensity is used to characterize the relative potency of inhibitors as IC50.
Set-up: species or system PRVABC59
pIC50: −log10 of the molar value.
// reported pIC50 per item

[
  {
    "Item Smiles": "Cc1cnnc(C(=O)Nc2cccc(CN)c2)c1",
    "pIC50": "< 4.00"
  },
  {
    "Item Smiles": "O=C(Nc1cc(Cl)cc(C(=O)NC2(c3nnn[nH]3)CC2)c1)OCc1ccccc1",
    "pIC50": "< 4.00"
  },
  {
    "Item Smiles": "c1cncc(CC2CN(Cc3n[nH]c4ccccc34)C2)c1",
    "pIC50": "< 4.00"
  },
  {
    "Item Smiles": "NCc1cc(CC(=O)O)cc([C@H]2C[C@@H]2c2cc(Cl)cc(NC(=O)OCc3ccccc3)c2)c1",
    "pIC50": "< 4.60"
  },
  {
    "Item Smiles": "Cc1c(C(=O)Nc2ccc3c(c2)CCCC(=O)N3)cc(C2CC2)n1C",
    "pIC50": "< 4.60"
  },
  {
    "Item Smiles": "Cc1c(C(=O)Nc2cc(-c3cccnc3)ccn2)cc(C2CCC2)n1C",
    "pIC50": "< 4.60"
  },
  {
    "Item Smiles": "O=Cc1cc(Cl)cc(NC(=O)OCc2ccccc2)c1",
    "pIC50": "< 4.00"
  },
  {
    "Item Smiles": "CN(C)C(=O)C[C@H]1NCc2cc(NC(=O)c3cc(Cl)cc4[nH]ncc34)ccc21",
    "pIC50": 6.32
  },
  {
    "Item Smiles": "COC(=O)c1ccc2[nH]cc(Cc3ccc(-c4nnn[nH]4)cc3)c2c1",
    "pIC50": "< 4.00"
  },
  {
    "Item Smiles": "NCc1cccc(NC(=O)[C@H](NC(=O)c2ccncc2)c2ccc(OCc3ccccc3)cc2)c1",
    "pIC50": "< 4.00"
  }
]

Requested field: pIC50. Item: CCOC(=O)[C@H]1[C@H](c2cccc(CN)c2)[C@H]1c1cc(Cl)cc(NC(=O)OCc2ccccc2)c1
4.76

Please look up its pIC50: O=C(c1cc(Cl)ccc1NS(=O)(=O)c1ccc(Oc2ccccc2Cl)cc1)N1CCC[C@H](O)C1
< 4.00

Please give the measured pIC50 for this molecule: O=C(Nc1ccc2c(c1)CNC2)c1c(Br)ccc2[nH]ncc12
< 4.60

Entry O=C(O)c1cc(Cl)ccc1S(=O)(=O)Nc1ccc(CN2CCCCC2)cc1 : reported pIC50 = ?
< 4.00

Would you mind telling me what pIC50 value was observed for NCc1cccc(NC(=O)[C@]2(NC(=O)OCc3ccccc3)CCOc3ccccc32)c1 ?
< 4.00

Value lookup for pIC50; key = C=CC[C@H]1NCc2cc(NC(=O)c3cc(Cl)cc4[nH]ncc34)ccc21
6.35

// returns reported pIC50 for input O=C(Nc1ccc2c(c1)CNC2)c1cccc2ccncc12
6.42

Fill in the blank: the reported pIC50 of O=C(O)c1cc(Cl)ccc1S(=O)(=O)Nc1ccc(Oc2ccccc2Cl)cc1 is ____.
4.32

What value of pIC50 has been recorded for this entry: C=CC[C@H]1NCc2cc(N[C@H](C(=O)NC(C)C)c3cccc4[nH]ncc34)ccc21
< 4.60

I would be grateful if you could share the reported pIC50 for CCOC(=O)Nc1cc(Cl)cc(C(=O)Nc2cccc(CN)c2)c1 .
5.50

// returns reported pIC50 for input Cc1[nH]c2ccc(Cl)cc2c1Cc1ccc(-c2nnn[nH]2)cc1
< 4.00

Item O=C(Nc1ccc2c(c1)CNC2)c1cc(F)cc(/C=C/c2ccccc2)c1 has what recorded pIC50?
6.78

Fill in the blank: the reported pIC50 of COc1ncccc1-c1cccc([C@H](NC(=O)OCc2ccccc2)C(=O)Nc2cccc(CN)c2)c1 is ____.
4.17

I am curious: what pIC50 value has been reported for CS(=O)(=O)c1ccc(N2CCN(C(=O)C3CCN(c4ccc(C=O)cc4)CC3)CC2)c([N+](=O)[O-])c1 ?
< 6.11

// lookup pIC50 for O=C(Nc1cc(-c2cccnc2)ccn1)c1cnn2c1CCC2
< 4.60

Which measured pIC50 value corresponds to NC[C@]1(F)C[C@@H](NC(=O)c2cc(Cl)cc(NC(=O)OCc3ccccc3)c2)C1 ?
4.16

Entry O=C(NCc1ccco1)c1csc(Br)c1 has what pIC50?
< 4.00

Reference for the values: ChEMBL document CHEMBL5604062
